Origin of values: paper PMC7156458

# subject of test: Aβ42 (Homo sapiens, UniProt P05067)
# Sequence (P05067 672-713): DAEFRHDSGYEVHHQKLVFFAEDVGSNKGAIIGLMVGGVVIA
# test: Th-T (thioflavin-T) assay of Aβ42 aggregation
# Format: biochemical
# condition notes: column suffix _50; measurement M21
Here the recorded Th-T fluorescence, mean of three wells (Fig. 7a) is given for each entry.
quantity: Th-T fluorescence, mean of three wells (Fig. 7a)

molecule="C=C1CCC2C(C)(CCC=C(C)C)C(O)CCC2(C)C1Cc1c(OC)oc(C)c(C(=O)OC)c1=O (centres unmarked)" subject_of_test="Aβ42 (Homo sapiens, UniProt P05067)" value_measured=0.6066
molecule=C=C1CC[C@@H]2[C@](C)(CC[C@H]3O[C@H](C=C(C)C)C[C@@]23C)[C@@H]1Cc1c(OC)oc(CO)c(C)c1=O subject_of_test="Aβ42 (Homo sapiens, UniProt P05067)" value_measured=2.224
molecule="C=C1CCC2C(C)(CCC=C(C)C)C(O)CCC2(C)C1Cc1c(OC)oc(CO)c(C)c1=O (centres unmarked)" subject_of_test="Aβ42 (Homo sapiens, UniProt P05067)" value_measured=1.707
molecule="C=C1CCC2C(C)(CCC=C(C)C)C(O)CCC2(C)C1Cc1c(OC)oc(CO)c(C(=O)OC)c1=O (centres unmarked)" subject_of_test="Aβ42 (Homo sapiens, UniProt P05067)" value_measured=0.2537
molecule=C=C1CC[C@@H]2[C@](C)(CC[C@H]3O[C@H](C=C(C)C)C[C@@]23C)[C@@H]1Cc1c(OC)oc(CO)c(C(=O)OC)c1=O subject_of_test="Aβ42 (Homo sapiens, UniProt P05067)" value_measured=0.2125

----------
# subject of test: Aβ42 (Homo sapiens)
# test: Th-T (thioflavin-T) assay of Aβ42 aggregation
# Format: biochemical
# condition notes: compound at 50; reading M52 of time course
The label class 1 is reserved for Th-T fluorescence, mean of three wells strictly under 2; class 0 covers values equal to or above it.

molecule=C=C1CC[C@@H]2[C@](C)(CC[C@H]3O[C@H](C=C(C)C)C[C@@]23C)[C@@H]1Cc1c(OC)oc(CO)c(C)c1=O subject_of_test="Aβ42 (Homo sapiens)" class_label="class 0"
molecule=C=C1CC[C@@H]2[C@](C)(CC[C@H]3O[C@H](C=C(C)C)C[C@@]23C)[C@@H]1Cc1c(OC)oc(CO)c(C(=O)OC)c1=O subject_of_test="Aβ42 (Homo sapiens)" class_label="class 1"
molecule="C=C1CCC2C(C)(CCC=C(C)C)C(O)CCC2(C)C1Cc1c(OC)oc(C)c(C(=O)OC)c1=O (centres unmarked)" subject_of_test="Aβ42 (Homo sapiens)" class_label="class 0"
molecule="C=C1CCC2C(C)(CCC=C(C)C)C(O)CCC2(C)C1Cc1c(OC)oc(CO)c(C(=O)OC)c1=O (centres unmarked)" subject_of_test="Aβ42 (Homo sapiens)" class_label="class 1"
molecule="C=C1CCC2C(C)(CCC=C(C)C)C(O)CCC2(C)C1Cc1c(OC)oc(CO)c(C)c1=O (centres unmarked)" subject_of_test="Aβ42 (Homo sapiens)" class_label="class 1"

----------
Here the recorded Th-T fluorescence, mean of three wells is given for each entry.
# subject of test: Aβ42 (Homo sapiens, UniProt P05067)
# test: Th-T (thioflavin-T) assay of Aβ42 aggregation
# Format: biochemical
# condition notes: compound at 20; reading M45 of time course
quantity: Th-T fluorescence, mean of three wells

compound=C=C1CC[C@@H]2[C@](C)(CC[C@H]3O[C@H](C=C(C)C)C[C@@]23C)[C@@H]1Cc1c(OC)oc(CO)c(C(=O)OC)c1=O value_measured=0.2129
compound="C=C1CCC2C(C)(CCC=C(C)C)C(O)CCC2(C)C1Cc1c(OC)oc(CO)c(C(=O)OC)c1=O (centres unmarked)" value_measured=0.5147
compound="C=C1CCC2C(C)(CCC=C(C)C)C(O)CCC2(C)C1Cc1c(OC)oc(C)c(C(=O)OC)c1=O (centres unmarked)" value_measured=2.074
compound="C=C1CCC2C(C)(CCC=C(C)C)C(O)CCC2(C)C1Cc1c(OC)oc(CO)c(C)c1=O (centres unmarked)" value_measured=2.1759
compound=C=C1CC[C@@H]2[C@](C)(CC[C@H]3O[C@H](C=C(C)C)C[C@@]23C)[C@@H]1Cc1c(OC)oc(CO)c(C)c1=O value_measured=3.402
